# System: NRG-mice bearing LNCaP tumors
# Method Description: Biodistribution (and PET/SPECT imaging) in NRG-mice bearing LNCaP tumors
# Type: in vivo
# Settings: 24 h p.i., Avg
*1 amine or outer side, *2 acyl side, *3 side chain or, on linkers, in order; H or OH if unused. Where a SMILES comes first, the peptide text is derived from it. [ ]: non-standard residue; d: D form. The star is where a group is joined. ξ: configuration not given here. ξLys(Nα-CO-ξAad) = O=C(O)CCCC(NC(=O)NC(CCCCN*)C(=O)O)C(=O)O; Butanoyl(4-(4-NO2Ph)) = O=C(CCCc1ccc([N+](=O)[O-])cc1)*; DOTA = O=C(O)CN1CCN(CC(=O)O)CCN(CC(=O)*)CCN(CC(=O)O)CC1; Butanoyl(4-(4-MeO-phenyl)) = COc1ccc(CCCC(=O)*)cc1; ξAla(9-anthryl) = NC(Cc1c2ccccc2cc2ccccc12)C(=O)O; X2 = O=C(NC(CCCCN*)C(=O)O)NC(CC(F)C(=O)O)C(=O)O; X1 = O=C(C1CCC(CN[*:1])CC1)[*:2]; ξK = NCCCCC(N)C(=O)O
Readout Name: Biodistribution: Fat (% ID/g)

Molecule: COc1ccc(CCCC(=O)NCC(=O)NC(CCCCNC(=O)CN2CCN(CC(=O)[O-])CCN(CC(=O)[O-])CCN(CC(=O)[O-])CC2)C(=O)NCC(=O)NCC2CCC(C(=O)NC(Cc3c4ccccc4cc4ccccc34)C(=O)NCCCCC(NC(=O)NC(CC(F)C(=O)O)C(=O)O)C(=O)O)CC2)cc1.[177Lu+3] (stereo not shown) [^177Lu-CCZ02008] ({Butanoyl(4-(4-MeO-phenyl))}-G[ξK](DOTA)G[X1][ξAla(9-anthryl)]-X2)
Unit Info: % ID/g
Measured: 0.71
//
Molecule: COc1ccc(CCCC(=O)NCC(=O)NC(CCCCNC(=O)CN2CCN(CC(=O)[O-])CCN(CC(=O)[O-])CCN(CC(=O)[O-])CC2)CC(=O)NCC2CCC(C(=O)NC(Cc3c4ccccc4cc4ccccc34)C(=O)NCCCCC(NC(=O)NC(CC(F)C(=O)O)C(=O)O)C(=O)O)CC2)cc1.[177Lu+3] (stereo not shown) [^177Lu-CCZ02019]
Unit Info: % ID/g
Measured: 0.33
//
Molecule: O=C([O-])CN1CCN(CC(=O)[O-])CCN(CC(=O)NCCCCC(NC(=O)CNC(=O)CCCc2ccc([N+](=O)[O-])cc2)C(=O)NCC(=O)NCC2CCC(C(=O)NC(Cc3c4ccccc4cc4ccccc34)C(=O)NCCCCC(NC(=O)NC(CCCC(=O)O)C(=O)O)C(=O)O)CC2)CCN(CC(=O)[O-])CC1.[225Ac+3] (stereo not shown) [^225Ac-CCZ02017] ({Butanoyl(4-(4-NO2Ph))}-G[ξK](DOTA)G[X1][ξAla(9-anthryl)]-{ξLys(Nα-CO-ξAad)})
Unit Info: % ID/g
Measured: 0.13
//
Molecule: O=C([O-])CN1CCN(CC(=O)[O-])CCN(CC(=O)NCCCCC(NC(=O)CNC(=O)CCCc2ccc([N+](=O)[O-])cc2)C(=O)NCC(=O)NCC2CCC(C(=O)NC(Cc3c4ccccc4cc4ccccc34)C(=O)NCCCCC(NC(=O)NC(CCCC(=O)O)C(=O)O)C(=O)O)CC2)CCN(CC(=O)[O-])CC1.[177Lu+3] (stereo not shown) [^177Lu-CCZ02017] ({Butanoyl(4-(4-NO2Ph))}-G[ξK](DOTA)G[X1][ξAla(9-anthryl)]-{ξLys(Nα-CO-ξAad)})
Unit Info: % ID/g
Measured: 0.20
